B1: TPR t1 (parent)
chain: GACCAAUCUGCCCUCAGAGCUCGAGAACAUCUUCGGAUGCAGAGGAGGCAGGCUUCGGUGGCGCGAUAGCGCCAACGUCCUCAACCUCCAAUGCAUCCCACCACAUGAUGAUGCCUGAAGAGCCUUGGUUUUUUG

Variants of: B1
experiment: polymerase ribozyme fitness, log enrichment relative to wild type (log ratio); higher = more active; in vitro selection for triplet polymerase activity
measured-property: polymerase ribozyme fitness (log ratio)
One number for each entry.

Example variants with recorded polymerase ribozyme fitness (log ratio):
# biopolymer-sequence, meas-value
records = [
    ("GACCCAUCUGCCCUCAGAGCUCGAGAACAUCUUCGGAUGCAGAUGAGGCAGGCUUCGGUGGCGCGAUAGCGCCAACUUCCUCAACCUCCAAUGCAUCCCACCACAUGAUGAUGCCUGAAGAGCCUUGGUUUUUUG", -2.37),
    ("GACCAAUCUGCCCUCAGAGCUUGAGAACAUCUUCGGAUGCAGAGGAGGCAGGCUUCGGUGACGCGAUAGCGCCAACGUCCUCAACCUCCAAUGCAUCCCACCACAUGAUGAUGCCUGAAGAGCCUUGGUUUUUUG", -3.53),
    ("GACCAAUCUGCCCACAGAGCUCGAGAACAUCUUCGGAUGCAGAGGAGGCAGGCUUCGGUGGCCCGAUAGCGCCAACGUCCUUAACCUCCAAUGCAUCCCACCACAUGAUGAGGCCUGAAGAGCCUUGGUUUUUUG", -1.65),
    ("GACCAAUCUGCCCUCAGAGCUCGAGAACAUCUUCGGAUGCAGAGGUGGCAGGCUUCGGUGGCGCGAUAGCGCUAACGUCCUCAACCUCCCAUGCAUCCCACCACAUGAUGAUGCCUGAAGAGCCUUGGUUUUAUG", -1.35),
    ("GACCCAUCUGGCCUCAGAGCUCGAGAACAUCUUCGGAUGCAGAAGAGGCAGGCUUAGGUGGCGCGAUAGCGCCAACGUCCUCAACCUCCAAUGCAUCCCACCACAUGAUGAAGCCUGAAGAGCCUUGGUUUUUUG", -0.571),
    ("GACCAAUCUGCCCUCAGAGCUCGAGAACAUCUUCGGAUGUAGGGGAGGCAGGCUUCGGUGACGCGAUAGCUCCAACGUCCUCAACCUCCAAUGCAUCCCACCACAUGAUGAUGCCUGAAGAGCAUUGGUUUUUUG", -4.58),
]

Record polymerase ribozyme fitness (log ratio) per entry; entries follow.
1. GACCAAGCUGUCCUCAGCGCUCGAGAACAUCUUCGGAUGCAGAGUAGGCAGGAUUCGGUGGCGCGAUAGCGCCAACGUCCUCAACCUCCAAUGCAUCCCACCACAUGAUGAUGCCUGAAGAGCCUUGGUUUUUUG
2. GACCAAUCUGCCCUCAGAGCUCGAGAACAUCUUCGGAUGCAGAGGAGGCAGGCUUCGCGGGCGCGAUAGCGCCAACGUCCUCAACGUCCAAUGCAUCCCACCACAUGAUGAUGCCUGAAGAGCCUUGGUUUUUUG
3. GACCAAUCUGGCCUCAGAGCUCGAGAACAUCUUCGGAUGCAGAGGAGGCAGGCUUCGGUGCCGCGUUAGCGCCACCGUCCUCAACCUCCAAUGCAUCCCACCACAUGAUGAUGUCUGAAGAGCCUUGGUUUUUUG
4. GACCAAUCUGCCCUCAGAGCUCGAGAACAUCUUCGGAUGCAGAGGAGGCAGGCUUCGGUGGCGCGAUAGCGCCAACGUCCCCAACCUCCAAUGCAUCCCACCACAUGAUGAUGCCUGAAGGGCCUUGGUUUUUUG
5. GACCAAUCUGCCCUCAGAGCUCGAGAGCAUCUUCGGAUGCAGAGGAGGUAGGCUUCGGUGGCGCGAUAGCGCCAACGUCCUCAACCUCCACUGCAUCCCACCACAUGAUGAUGCCUGAAGAGCCUUGGUUUUUUG
6. GACCACUCUGCCCUCAGAGCUCGAGAACAUCUUCGGAAGCAGAGGAGGCAGGGUUCGGUGGCGCGAUAGCGCCAACGUCCUCAACCUCCAAUGCAUCCCACCACAUGAUGAUGCCUGAAGAGCCUUGGUUUUUUG
7. GACUAAUGUGCCCUCAGAGCUCGAGAACAUCUUGGGAUGCAGAGGUGGCAGGCUUCGGGGGUGCGAUAGCGCCAACGUCCUCAACCUCCAAUGCAUCCCACUACAUGAUGAUUCCUGAAGCGCCUUGGUUGUUUG

Given back:
1. -2.72
2. -0.556
3. -3.81
4. 0.253
5. -4.72
6. -0.826
7. -6.55

Your task in this section: give polymerase ribozyme fitness (log ratio) for each listed record.
1. GACCAAUCUGCCCUCAGAGCUCGAGAACAUCUUCGGAUGCAGAGGAGGCUGGCUUCGGUGGCGCGAUAGCGUCAACGUCCUCAACCUCCAAUGCAUCCCACCACACGAUGAUGCCUGAAGAGCCUUGGUUUUUUG
2. GACCAAUUUGCCCUCAGAGCUCGAGAACAUCUUGGGAUGCAGAGGAGGCAGGCUUCGGUGGCGCGAUAGCGCCAACGUCCUCAACCUCCAAUGCAUCCCACCACAUGAUGAUGCCUGAAGAGCCUUGGUUUUUUG

Given back:
-0.84
-5.47

Every entry's value here was drawn from the RNAGym collection of RNA variant scans (doi:10.1073/pnas.2313332121).
